The reader will find reported melting point values listed item by item below.

Please review the entries below; each comes with its answer.
* CC(CCCCCCC(=O)O)C1CCC2C3CCC4CC(O)CCC4(C)C3CC(O)C12C (stereo not drawn) | 182 to 185 °C
* Nc1ccc(C(c2ccc(F)cc2)n2ccnc2)cc1[N+](=O)[O-] (stereo not drawn) | 147 °C
* N#Cc1cnc2cc(/C=C/CCN3CCOCC3)ccc2c1Nc1ccc(Cl)cc1Cl | 129 to 131 °C
* CCOC(=O)c1cn(-c2cccnc2)cn1 | 102 to 103 °C
* CCCCCCCCOc1ccc(CC(=O)[C@H]2CC[C@H](CCCCC)CC2)c(F)c1F | 59 °C

Q: Sample "C=CCN(CC=C)Cc1nc(-c2ncn3c2[C@@H]2CCN2C(=O)c2c-3ccc(F)c2Cl)no1" — what was its melting point?
Result: 103 to 104 °C

Q: Which melting point reading was recorded for the compound "CCCn1nc2c(N)nc3ncccc3c2c1CC(C)(C)C#N" ?
Result: 249 to 252 °C

Q: Report melting point for "CCOC(=O)c1c(-c2ccc(OC)c(OC)c2)c2cc(Cl)ccc2n(C)c1=O" please.
Result: 104 to 106 °C

###

Listed next: entries and their corresponding melting point.

# annotated cases, reported melting point shown
• CCCCSc1c2sc3ccccc3nc-2ccc1=O = 72 °C
• CC(=O)Nc1c(C(=O)c2ccccc2)[nH]c2cc(C(F)(F)F)ccc12 = 177 to 179 °C
• COc1ccccc1P(CCCP(c1ccccc1OC)c1ccccc1OC)c1ccccc1OC = 149 to 150 °C
• N#CCN1C(=O)CC=C(C2(c3ccccc3)C=C3C=CC=CN3N2)N1C1=CCCCC1 (configuration not stated) = 74 to 76 °C
• COCCNC(=O)c1cccc(-c2cccc3cc(COc4cc(C(F)(F)F)ccn4)sc23)c1 = 186 to 187 °C
• C#CCOc1cc(C(=O)O)cc(N)c1-c1ccccc1 = 172 to 173 °C

Q: Returns the measured melting point for the input molecule. Input: "O=C(Nc1ccc(OC(F)(F)F)cc1)NC1CCN(C(=O)Cc2ccccn2)CC1"
Result: 183 to 187 °C

Q: Dear colleague, I am looking for the recorded melting point of the following molecule: "Cc1nc(N2CCN(Cc3ccc(F)cc3)C2=O)sc1C(=O)NCc1ccccc1"
Result: 192 to 193 °C

Q: Need melting point of "Cc1oc(-c2ccccc2)nc1COc1ccc(COc2ccc3ccccc3c2C=O)cc1" , thanks.
Result: 141 to 142 °C

Q: Consider the molecule shown here: COc1ccc2c3c1OC1C[C@@H](O)C=CC31CCN(C(=O)NC(C)C)C2 (some centres not stated) What is its recorded melting point?
Result: 106 to 108 °C

Q: Reported melting point, molecule "ClCc1cn2c(n1)CN=C(c1ccccn1)c1cc(Cl)ccc1-2" : ____
Result: 161 °C

Q: # lookup: melting point of "CC(=O)ON=C(N)c1ccc(C(=O)N2CCN(C(=O)[C@@H]3CCCN3S(=O)(=O)c3ccc(Cl)c(COc4cccn5c(C)c(C)nc45)c3Cl)CC2)cc1"
Result: 142 to 145 °C

Q: What does the record list as melting point for CC1Oc2ccc(OCCCC(C)(C)C(=O)O)cc2C=C1c1nccn1C (configuration not stated) ?
Result: 145 to 146 °C

Q: Look up melting point: "COc1cc2ncnc(N3CCc4cc5[nH]ccc5cc43)c2cc1OC"
Result: 245 to 252 °C

Q: Given "Cc1ccc(Oc2ccccc2-c2noc(=O)[nH]2)c(O)c1" , state its recorded melting point.
Result: 213 to 214 °C

Q: Dear colleague, I am looking for the recorded melting point of the following molecule: "c1ccc(OCCSCc2nnc(-c3ccc(OCCCN4CCSCC4)cc3)o2)cc1"
Result: 85 °C

Q: What measured melting point goes with "Cc1nnsc1C(=O)c1[nH]c2ccc(Cl)cc2c1CC(=O)O" ?
Result: 229 to 230 °C

Q: Look up melting point for this molecule: "Cc1c2c(c(-c3ccc(C(F)(F)F)cc3)c3c4c(ccc13)OCO4)CNC2=O"
Result: 303 to 305 °C

Q: So what's the measured melting point for this one? O=C1OCC(CNC2CCCCC2)C1(c1ccccc1)c1ccccc1 (configuration not stated)
Result: 129 to 131 °C

Q: Value lookup for melting point; key = O=C1N(Cc2ccc(Cl)cc2)c2ccccc2C1(O)c1cc(OCc2ccccc2)ccc1O (configuration not stated)
Result: 172 to 175 °C

Q: Look up melting point for this molecule: "NS(=O)(=O)c1ccc(N2CCN(CC[C@H]3OCCc4ccccc43)CC2)cc1"
Result: 189 to 190 °C

Q: I am curious: what melting point value has been reported for COC(=O)C(c1ccccc1Cl)N1CCc2sc(OC(=O)C(C)(C)C)cc2C1 (configuration not stated) ?
Result: 118 to 120 °C

Q: Value lookup for melting point; key = "CN(C)c1ccc(/C=C/C(=O)CC(=O)/C=C/c2ccc3cc[nH]c3c2)cc1"
Result: 112 to 119 °C

Q: Which melting point reading was recorded for the molecule "Nc1cc(OCCOCP(=O)(O)O)nc(N)n1" ?
Result: 279 °C

###

Reported melting point values for a set of molecules

Here are 10 molecules together with their reported answers.
• CCC=C(C)C(O)C(CC)CC (stereo unspecified) = 92 to 93 °C
• COc1cc(C(C)=O)ccc1OCCCN1CCC(c2noc3cc(Cl)ccc23)CC1 = 116 to 118 °C
• CC1(Cc2ccccc2)COc2cc(C(=O)O)ccc21 (stereo unspecified) = 165 °C
• CC(=CC(CNC(=O)c1cccnc1)=NO)C(C)[N+](=O)[O-] (stereo unspecified) = 137 to 139 °C
• CCCCCCCCCCCCCCCCCCOc1cc(N(CC(=O)OC)CC(=O)OC)cc(S(C)=O)c1 (stereo unspecified) = 80 to 82 °C
• N=C(c1ccccc1)C1CCN1C(c1ccccc1)c1ccccc1 (stereo unspecified) = 124 to 126 °C
• C#CCn1cc(F)cnc1=O = 107 to 108 °C
• CC(c1ccccc1)N1C(=O)NCc2c(-c3ccccc3)cccc21 (stereo unspecified) = 136 to 138 °C
• N#Cc1cccc(-c2ccc(O)c(-c3nc4cc(C#N)ccc4[nH]3)c2)c1 = 348 to 350 °C
• CCN1CCCC1CNC(=O)c1nc(NC)sc1-c1ccncc1 (stereo unspecified) = 76 to 78 °C

Pending molecule:
Q: Could you share which melting point value was measured for "Cc1[nH]cnc1CSCCN=CNC#N" ?
Result: 168 to 170 °C

###

REPORTED PROPERTY: melting point

Completed entries (count: 5):
* CC(C)(C)c1cc(CCC(=O)OC2CCCCCCCCCCC2OC(=O)CCc2cc(C(C)(C)C)c(O)c(C(C)(C)C)c2)cc(C(C)(C)C)c1O (configuration not stated) | 61 to 74 °C
* CC1=Nc2c(-c3ccncc3)c(-c3ccc(F)cc3)nn2C(C)(C)C1 | 171 to 173 °C
* Fc1cccc(Cl)c1-c1c(Cl)cc(-n2cncn2)nc1Cl | 210 °C
* COc1cc2c(cc1OC)/C(=C\c1ccc(OCC(=O)OC(C)(C)C)cc1)C(=O)N2 | 158 to 160 °C
* CCOc1nc2c(cnn2CC)nc1C(=O)O | 128 to 130 °C

Q: Give its melting point value. Item: "O=C(NCCO)/C(=C/c1ccc(OC(F)(F)F)cc1)NC(=O)c1ccc(OCC2CCC2)cc1"
Result: 168 to 170 °C

Q: Could you share which melting point value was measured for "Cc1ccccc1C(=O)N1CCC(=NO)c2ccc(Cl)cc21" ?
Result: 166 to 168 °C

###

This listing pairs compounds with measured melting point.

• Cc1c(CCNC(=O)OC(C)(C)C)c2cc(S(=O)(=O)c3cc(F)cc(F)c3)ccc2n1C = 182 to 186 °C
• CCCCCCCCCCCCCCCCCCOc1cc(C(N)=O)cc([N+](=O)[O-])c1 = 117 to 120 °C
• CCCCc1nc2c(N)nc3ccccc3c2n1CCCNC(=O)N1CCOCC1 = 193 to 195 °C
• CCn1cc(C(=O)O)c(=O)c2cc(F)c(N3CC(C)(N)C3)cc21 = 280 to 283 °C
• Cc1cc(-n2ccnc2)c2cccc(OCc3c(Cl)ccc(S(=O)(=O)N4CCCC4C(=O)NCC4CCCCN4C(=O)CC(=O)O)c3Cl)c2n1 (stereo not drawn) = 130 °C

Q: Need melting point, item "COc1cc(C(=O)c2cn(C)c(-c3cn(C)c4ccccc34)n2)cc(OC)c1OC"
Result: 164 to 166 °C

Q: Which melting point value is on record for "Cc1cc(Br)cc(C(=O)Nc2ccc(F)cn2)n1" ?
Result: 160 °C

Q: What does the record list as melting point for COC(=O)[C@H]1OC(OC(=O)c2ccc(/C=C(\C)c3ccc4c(c3)C(C)(C)CCC4(C)C)cc2)[C@H](OC(C)=O)[C@@H](OC(C)=O)[C@@H]1OC(C)=O (stereo partly drawn) ?
Result: 161 °C
